experiment: Tmax in duodenum of Sprague-Dawley rat at 10 mg/kg, po bid administered 7 doses over 3.5 days; type: ADME, organism-based
readout-kind: Tmax (h)
Give bare numbers, in h.

Output Tmax of CCOc1cc(=O)[nH]cc1-c1ccc(CC(=O)Nc2cc(C(C)(C)C(F)(F)F)on2)c(F)c1 [GSK-3179106] 0

---

assay: Solubility of the compound in FaSSIF after 4 hrs; type: physicochemical
readout-kind: solubility at 4 h (µg/mL)
One number for each entry, in µg/mL.

Name the recorded solubility at 4 h of the item CCOc1cc(=O)[nH]cc1-c1ccc(CC(=O)Nc2cc(C(C)(C)C(F)(F)F)on2)c(F)c1 [GSK-3179106] in your answer. 0.4
